Test: in vivo
Details: male, NodCB17 SCID, mouse, bone, iv, total radioactivity
Recorded metric: tissue uptake at 1 h (%ID/g)
// units = %ID/g; emit number, no label

The measured tissue uptake at 1 h associated with CC(C)C[C@H](NC(=O)C[C@H](O)[C@H](CC(C)C)NC(=O)[C@H](Cc1c[nH]cn1)NC(=O)CNC(=O)[C@@H](NC(=O)[C@H](C)NC(=O)[C@H](Cc1c[nH]c2ccccc12)NC(=O)[C@H](CCC(N)=O)NC(=O)[C@@H](Cc1ccccc1)NC(=O)CCOCCOCCOCCOCCNC(=O)OC1CCCC2=CNN=C(c3ccc(CNC(=O)CN4CCN(CC(=O)O)CCN(CC(=O)O)CCN(CC(=O)O)CC4)cc3)C2CC1)C(C)C)C(N)=O (stereo partly shown) [[111In]In-DOTA-Tz-TCO-PEG4-AR, metal not drawn] reads 0.5

====

Experiment: in vivo
Details: male, NodCB17 SCID, mouse, kidney, iv, total radioactivity
Recorded metric: tissue uptake at 1 h (%ID/g)
Unit %ID/g implied. Number only.

Item: CC(C)C[C@H](NC(=O)C[C@H](O)[C@H](CC(C)C)NC(=O)[C@H](Cc1c[nH]cn1)NC(=O)CNC(=O)[C@@H](NC(=O)[C@H](C)NC(=O)[C@H](Cc1c[nH]c2ccccc12)NC(=O)[C@H](CCC(N)=O)NC(=O)[C@@H](Cc1ccccc1)NC(=O)CCOCCOCCOCCOCCNC(=O)OC1CCCC2=CNN=C(c3ccc(CNC(=O)CN4CCN(CC(=O)O)CCN(CC(=O)O)CCN(CC(=O)O)CC4)cc3)C2CC1)C(C)C)C(N)=O (stereo partly shown) [[111In]In-DOTA-Tz-TCO-PEG4-AR, metal not drawn] | tissue uptake at 1 h: 3.7

====

Biodistribution: Bone: recorded values
Test: Biodistribution of [111In]In-radiocomplexes in healthy mice
Format: in vivo
Conditions: 15 min p.i.
Please append the unit to your numeric answer.

Known results for compounds:
{"columns": ["Compound", "Measured result"],
 "data": [
  ["O=C([O-])CN1CCN(CC(=O)[O-])CCN(CC(=O)NCc2ccc(-c3nncnn3)cc2)CCN(CC(=O)[O-])CC1.[111In+3] [[111In]In-DOTA-Tz]", "1.0 ± 0.7 % I.D./g"],
  ["O=C([O-])CN1CCN(CC(=O)[O-])CCN(C(CCC(=O)NCc2ccc(-c3nncnn3)cc2)C(=O)[O-])CCN(CC(=O)[O-])CC1.[111In+3] (stereo not shown) [[111In]In-DOTAGA-Tz]", "1.2 ± 0.2 % I.D./g"],
  ["O=C([O-])CN1CCN(CC(=O)[O-])CCN(C(CCC(=O)NCCOCCOCCOCCOCCOCCOCCOCCOCCOCCOCCOCCNC(=O)CCCC(=O)NCc2ccc(-c3nncnn3)cc2)C(=O)[O-])CCN(CC(=O)[O-])CC1.[111In+3] (stereo not shown) [[111In]In-DOTAGA-PEG-Tz]", "0.8 ± 0.2 % I.D./g"]
]}

Alright, here's another compound for you.
Biodistribution: Bone for O=C([O-])CN1CCN(CC(=O)[O-])CCN(CC(=O)NCCOCCOCCOCCOCCOCCOCCOCCOCCOCCOCCOCCNC(=O)CCCC(=O)NCc2ccc(-c3nncnn3)cc2)CCN(CC(=O)[O-])CC1.[111In+3] [[111In]In-DOTA-PEG-Tz] is 0.78 ± 0.08 % I.D./g
